Sourced from ChEMBL document CHEMBL4513216

Recorded cytotoxicity at 10 µM, one value per entry.
Test: Toxicity liver stage against HepG2, at 10uM
Format: cell-based
Set-up: test concentration 10 uM, cell line HepG2-A16-CD81EGFP
Conditions: human, HepG2-A16-CD81EGFP cells; read-out: INHIBITION
Property: cytotoxicity at 10 µM (%)

# Molecule, Unit of measure, Observed value
data = [
    ("Cc1cc2nc(C(C)C)cc(NCc3ccncc3)n2n1", "%", 2.63),
    ("Cc1ccccc1SC1CCN(C(=O)C2CNCC(=O)N2)CC1 (stereo unspecified)", "%", -3.81),
    ("COCCN(Cc1nccs1)C(=O)c1cc(-c2ccc(C)o2)n[nH]1", "%", 6.23),
    ("Fc1cccc(F)c1Cn1c(C2CCCNC2)cc2cccnc21 (stereo unspecified)", "%", 2),
    ("CN(C)S(=O)(=O)N1CCC2(COCc3cnc(-c4cccnc4)nc32)C1 (stereo unspecified)", "%", -115),
    ("COCCN1CC[C@H](OC)[C@@H]1Cc1ccccc1", "%", -0.675),
    ("CC(c1cccc(S(N)(=O)=O)c1)N(C)CCc1ccccc1 (stereo unspecified)", "%", -12),
    ("Cc1cnc(C(=O)NCC2CCOc3ccccc3C2)cn1 (stereo unspecified)", "%", 5.06),
    ("COCC(=O)NCC1CCCN(Cc2cc3ccccc3[nH]2)C1 (stereo unspecified)", "%", 7.32),
    ("Cc1ccccc1CC1(C(=O)O)CCCN(c2ncccn2)C1 (stereo unspecified)", "%", 1.25),
    ("Cc1ccncc1C(=O)N1C[C@@H]2CN(c3ncccn3)C[C@]2(C(=O)O)C1", "%", 2.36),
    ("Cn1c(CN2CCCC2c2noc(C3CC3)n2)cc(=O)n(C)c1=O (stereo unspecified)", "%", 4.04),
    ("CCN1CC2(CC1=O)CN(C(=O)c1cccs1)CCN(C(=O)N(C)C)C2 (stereo unspecified)", "%", 2),
    ("Cc1cnn(CC2CCCCN2CCCS(=O)(=O)N(C)C)c1 (stereo unspecified)", "%", -5.1),
    ("Cc1cc(C)n(-c2ccc(C(C)NS(=O)(=O)CCCS(C)(=O)=O)cc2)n1 (stereo unspecified)", "%", 7.04),
    ("CCOC(=O)Cc1csc(NC(=O)c2ccc(=O)[nH]n2)n1", "%", -1.23),
    ("Cn1ccc(C(=O)N2CCCC2c2[nH]ncc2C(N)=O)n1 (stereo unspecified)", "%", 15.3),
    ("CC(C)c1cc(C2CCCN2C(=O)CN2C(=O)CCNC2=O)no1 (stereo unspecified)", "%", 18.8),
    ("COc1ccc(CNCC2CCN(c3ccccc3OC)C2)cc1O (stereo unspecified)", "%", -8.54),
    ("Cc1ccc2nc(C3CCN(CCO)CC3)nn2c1", "%", -1.23),
    ("CCC(O)Cn1cc(C2=CCN(Cc3cc(O)nc(C)n3)CC2)cn1 (stereo unspecified)", "%", -9.2),
    ("CN(Cc1nnc2n1CCC2)C(=O)NCCc1ccc2c(c1)OCO2", "%", -4.77),
    ("Cc1c(C2SCC(=O)Nc3c2cnn3C(C)(C)C)cnn1C (stereo unspecified)", "%", -1.21),
    ("CC(=O)Nc1ccsc1C(=O)N1CC[C@H]2CC[C@@H](C1)N2C", "%", -1.47),
    ("COc1ccc(C(C)N(C)Cc2c(C3CC3)[nH]c3ncccc23)cc1 (stereo unspecified)", "%", -2.45),
    ("Cn1c(NCc2ccc(C(N)=O)cc2)nc2cc(Cl)ccc21", "%", 1.42),
    ("O=C(c1ccnc(-n2ccnc2)c1)N1CCCC(n2cccn2)C1 (stereo unspecified)", "%", 1.21),
    ("Cc1nn(C(C)C)c2cnn(CC(=O)N3CCN(C)CC3)c12", "%", 9.51),
    ("N#Cc1c(CN2CCCC2Cn2cncn2)cn2ccccc12 (stereo unspecified)", "%", -2.49),
    ("CC(C)N1CCC(N2CCCC(C(=O)NCC3(C)COC3)C2)CC1 (stereo unspecified)", "%", -5.62),
    ("Cc1ccc(S(=O)(=O)Nc2ccc(-n3ccnc3C)nc2)cc1N(C)C", "%", -3.78),
    ("Cc1cnc(C)c(N2CCN(CC3CCCO3)CC2)n1 (stereo unspecified)", "%", 5.82),
    ("CC(=O)N[C@@H]1CN(Cc2ccccc2-n2cccn2)C[C@H]1C(C)C", "%", 8.67),
    ("CCOc1cccc(C(C)NC(=O)N2CCC3(CC2)OCCO3)c1 (stereo unspecified)", "%", 0.322),
    ("Cn1cccc1-c1cc(C(=O)N2CCCC2c2ccc(C(N)=O)s2)[nH]n1 (stereo unspecified)", "%", -1.33),
    ("COc1nc2c(cc1C(=O)NCCCc1csc(N)n1)CCC2", "%", 3.63),
    ("CN1CC[C@]2(CN(C(=O)[C@H]3CCCO3)C[C@H]2c2ccccc2)C1=O", "%", 8.49),
    ("CCS(=O)(=O)NC(CCSC)C(=O)Nc1ccc(F)cc1 (stereo unspecified)", "%", -6.6),
    ("CCc1ccc(C(=O)N2CCC(O)(CN3CCOCC3)C(C)(C)C2)[nH]1 (stereo unspecified)", "%", 0.542),
    ("CCCC(O)CN1CCC(=O)N(CC2CC2)Cc2cc3c(cc21)OCO3 (stereo unspecified)", "%", -1.89),
    ("CN(C)C[C@]12COC[C@H]1CN(Cc1ccc3ccccc3n1)C2", "%", 6.77),
    ("Cc1cc(CC(=O)NC(C)c2ccc(OCC3CC3)c(F)c2)n[nH]1 (stereo unspecified)", "%", 4.75),
    ("COCCN1C[C@@H]2CN(c3cc(OC)ncn3)CCC[C@]2(C(=O)O)C1", "%", 4.26),
    ("O=C(COc1cccc2c1CCC2=O)NCCc1cccs1", "%", 0.79),
    ("O=C(c1cc2c(Cl)cccc2[nH]1)N1CCN(CCc2ccccn2)CC1", "%", 3.07),
    ("COc1ccc(C(=O)N2CCN(CCO)CC2)c(F)c1", "%", -3.79),
]

----------
Test: Toxicity liver stage against HepG2, at 10uM
Assay type: cell-based
Parameters: test concentration 10 uM, cell line HepG2-A16-CD81EGFP
Settings: human, HepG2-A16-CD81EGFP cells; read-out: INHIBITION
Property: cytotoxicity at 10 µM (%)

# Compound, Observed value
data = [
    ("Cc1noc([C@H]2C[C@@H]3CCN(C(=O)c4cccn4C)C[C@H]3O2)n1", -103),
    ("CN(C)C(=O)N1C[C@H]2CC[C@@H](C1)N(Cc1ccc3nsnc3c1)C2", -6.69),
    ("O=C(O)C1(Cc2cccc(-c3ccc(F)cc3)c2)CCOCC1", -24.1),
    ("COC(=O)C(C)N(Cc1cc(=O)n(C)c(=O)n1C)C1CC1 (stereo not drawn)", -0.719),
    ("COc1ccc(NC(=O)CCC2CCCN(S(=O)(=O)C3CC3)C2)c(C)c1 (stereo not drawn)", -3.41),
    ("O=C1[C@H]2CN(c3ncccn3)C[C@H]2CN1CC1CC1", 4.41),
    ("Cc1nc2c(c(C)c1CC(=O)NCc1ccc(F)cc1)c(=O)[nH]n2C", -15.9),
    ("COC(=O)N1CCC(Nc2ccc(Cl)c(C#N)n2)CC1", 1.96),
    ("Fc1cnc(N2C[C@@H]3C[C@@H](c4nc(C5CC5)cs4)O[C@@H]3C2)nc1", 22.8),
    ("CNC(=O)c1ccccc1NCc1ncnn1C", -0.393),
    ("CCOCc1nc(N2CCOCC2)sc1C(=O)NCc1ccco1", 1.64),
    ("CC(=O)N[C@@H]1CN(C2CCN(c3cccc(Cl)c3)CC2)C[C@H]1C(C)C", 1.6),
    ("CNC(=O)COc1ccc(CNc2cncc(-n3cccn3)n2)cc1", -0.906),
    ("Cc1nc(C2CCCN(C(=O)c3cc(Cl)c4c(c3)OCO4)C2)no1 (stereo not drawn)", -2.09),
    ("O=C(CNC(=O)C1CC1)NCC(F)(F)F", -5.82),
    ("Cc1cccc(Sc2nccn(C)c2=O)c1", 3.52),
    ("O=C(NCc1cc(=O)n2c(n1)CN(CC1CC1)CCC2)c1ccsc1", -103),
    ("Cc1ncc(CC(=O)N2CCCC(COc3ccc(F)cc3)C2)c(=O)[nH]1 (stereo not drawn)", -142),
    ("Cc1cccc(NCCNc2ccc(C#N)cn2)n1", 18),
    ("CC1COCCN1Cc1nc(-c2cccc(Br)c2)no1 (stereo not drawn)", -3.04),
    ("COC(=O)c1ccc(OC)c(Cn2cc(Br)cn2)c1", 3.05),
    ("O=C(NCc1nncn1C1CC1)C1(c2ccccc2)CCOCC1", 3.31),
    ("COCCN1CC[C@@H]2OC[C@H](C(=O)N(C)Cc3ccccn3)C[C@@H]2C1", -98.5),
]
